Tested on: P-388
Test: Inhibition of cell growth by counting cells, P-388
Format: cell-based, mouse
Conditions: Mus musculus, P388, 72 h; three days of incubation; read-out: IC50 (molar) P-388
Reported Metric: pIC50
Answers are plain numbers, as −log10 of the molar value.

COc1cc2c(cc1O)CCN(C)[C@]21CS[C@@H]2c3c(OC(C)=O)c(C)c4c(c3[C@H](COC1=O)N1C2[C@H]2c3c(cc(C)c(OC)c3O)C[C@@H]([C@@H]1C#N)N2C)OCO4 (stereo partly drawn) :: 9.89
CCCCCCCC(=O)Oc1c(C)c2c(c3c1[C@H]1SC[C@]4(NCCc5cc(O)c(OC)cc54)C(=O)OC[C@@H]3N3C1[C@H]1c4c(cc(C)c(OC)c4O)C[C@@H]([C@@H]3O)N1C)OCO2 (stereo partly drawn) :: 9.23
CCCCCCCC(=O)Oc1cc2c(cc1OC)[C@@]1(CS[C@@H]3c4c(OC(C)=O)c(C)c5c(c4[C@H](COC1=O)N1C3[C@@H]3N[C@@H](Cc4cc(C)c(OC)c(OC(=O)CCCCCCC)c43)[C@@H]1C#N)OCO5)NCC2 (stereo partly drawn) :: 7.30
COc1cc2c(cc1OCc1ccccc1)CCN[C@]21CS[C@@H]2c3c(OC(C)=O)c(C)c4c(c3[C@H](COC1=O)N1C2[C@H]2c3c(cc(C)c(OC)c3O)C[C@@H]([C@@H]1O)N2C)OCO4 (stereo partly drawn) :: 9.23
COc1cc2c(cc1OC(=O)/C=C/c1ccccc1)CCN[C@]21CS[C@@H]2c3c(OC(C)=O)c(C)c4c(c3[C@H](COC1=O)N1C2[C@H]2c3c(cc(C)c(OC)c3OC(=O)/C=C/c3ccccc3)C[C@@H]([C@@H]1C#N)N2C)OCO4 (stereo partly drawn) :: 8.01

Report pIC50 for each item below.
1. CCCCCCCCCCCCCCCC(=O)Oc1c(C)c2c(c3c1[C@H]1SC[C@]4(NCCc5cc(OC(=O)OC(C)(C)C)c(OC)cc54)C(=O)OC[C@@H]3N3C1[C@H]1c4c(cc(C)c(OC)c4OC(=O)CCCCCCCCCCCCCCC)C[C@@H]([C@@H]3C#N)N1C)OCO2 (stereo partly drawn)
2. C=CCOc1cc2c(cc1OC)[C@@]1(CS[C@@H]3c4c(OC(C)=O)c(C)c5c(c4[C@H](COC1=O)N1C3[C@H]3c4c(cc(C)c(OC)c4OCC=C)C[C@@H]([C@@H]1C#N)N3C)OCO5)NCC2 (stereo partly drawn)
3. COc1cc2c(cc1OC(=O)OC(C)(C)C)CCN[C@]21CS[C@@H]2c3c(O)c(C)c4c(c3[C@H](COC1=O)N1C2[C@H]2c3c(cc(C)c(OC)c3O)C[C@@H]([C@@H]1C#N)N2C)OCO4 (stereo partly drawn)
4. CCCCCCCCCCCCCCCC(=O)Oc1cc2c(cc1OC)[C@@]1(CS[C@@H]3c4c(OC(C)=O)c(C)c5c(c4[C@H](COC1=O)N1C3[C@H]3c4c(cc(C)c(OC)c4O)C[C@@H]([C@@H]1O)N3C)OCO5)NCC2 (stereo partly drawn)

[6.08, 7.93, 8.92, 8.00]

* * *

Please go through the items and note down their pIC50.
System: HT-29
Test: Inhibition of cell growth by counting cells, HT-29
Format: cell-based, human
Conditions: three days of incubation; read-out: IC50 (molar) HT-29
Answers are plain numbers, as −log10 of the molar value.

Worked set:
COc1cc2c(cc1OC(=O)OC(C)(C)C)CCN[C@]21CS[C@@H]2c3c(OC)c(C)c4c(c3[C@H](COC1=O)N1C2[C@H]2c3c(cc(C)c(OC)c3OC)C[C@@H]([C@@H]1C#N)N2C)OCO4 (stereo partly shown) :: 9.93
COc1cc2c(cc1OC(=O)OC(C)(C)C)CCN[C@]21CS[C@@H]2c3c(OC)c(C)c4c(c3[C@H](COC1=O)N1C2[C@H]2c3c(cc(C)c(OC)c3O)C[C@@H]([C@@H]1C#N)N2C)OCO4 (stereo partly shown) :: 9.92
COc1cc2c(cc1OC(=O)CCCCC1SCC3NC(=O)NC31)CCNC21CSC2c3c(OC(C)=O)c(C)c4c(c3C(COC1=O)N1C(C#N)C3Cc5cc(C)c(OC)c(O)c5C(C21)N3C)OCO4 (stereo not shown) :: 9.30

Report pIC50 for each item below.
1. C=CCOC(=O)Oc1c(C)c2c(c3c1[C@H]1SC[C@]4(NCCc5cc(O)c(OC)cc54)C(=O)OC[C@@H]3N3C1[C@H]1c4c(cc(C)c(OC)c4O)C[C@@H]([C@@H]3C#N)N1C)OCO2 (stereo partly shown)
2. CCCOc1c(C)c2c(c3c1[C@H]1SC[C@]4(NCCc5cc(O)c(OC)cc54)C(=O)OC[C@@H]3N3C1[C@H]1c4c(cc(C)c(OC)c4O)C[C@@H]([C@@H]3C#N)N1C)OCO2 (stereo partly shown)
3. CCCCCCCC(=O)Oc1cc2c(cc1OC)[C@@]1(CS[C@@H]3c4c(OC(C)=O)c(C)c5c(c4[C@H](COC1=O)N1C3[C@H]3c4c(cc(C)c(OC)c4O)C[C@@H]([C@@H]1C#N)N3C)OCO5)NCC2 (stereo partly shown)
4. COc1cc2c(cc1OC(=O)CCCCC1SCC3NC(=O)NC31)CCNC21CSC2c3c(OC(C)=O)c(C)c4c(c3C(COC1=O)N1C(C#N)C3Cc5cc(C)c(OC)c(OC(=O)CCCCC6SCC7NC(=O)NC76)c5C(C21)N3C)OCO4 (stereo not shown)

[9.91, 9.89, 8.95, 8.09]

* * *

The following molecules each carry a recorded Toxicity Data Heart for Heart.

C=CCOc1c(C)c2c(c3c1[C@H]1SC[C@]4(NCCc5cc(O)c(OC)cc54)C(=O)OC[C@@H]3N3C1[C@H]1c4c(cc(C)c(OC)c4O)C[C@@H]([C@@H]3O)N1C)OCO2 (stereo partly drawn) :: 3.72E-08
COc1cc2c(cc1O)CCN(C)[C@]21CS[C@@H]2c3c(OC(C)=O)c(C)c4c(c3[C@H](COC1=O)N1C2[C@H]2c3c(cc(C)c(OC)c3O)C[C@@H]([C@@H]1O)N2C)OCO4 (stereo partly drawn) :: 4.46E-08
COc1cc2c(cc1OC(C)=O)CCN[C@]21CS[C@@H]2c3c(OC(C)=O)c(C)c4c(c3[C@H](COC1=O)N1C2[C@H]2c3c(cc(C)c(OC)c3O)C[C@@H]([C@@H]1O)N2C)OCO4 (stereo partly drawn) :: 3.48E-09
COc1cc2c(cc1OC(=O)Cc1cc(=O)oc3cc(N(C)C)ccc13)CCN[C@]21CS[C@@H]2c3c(OC(C)=O)c(C)c4c(c3[C@H](COC1=O)N1C2[C@H]2c3c(cc(C)c(OC)c3OC(=O)Cc3cc(=O)oc5cc(N(C)C)ccc35)C[C@@H]([C@@H]1O)N2C)OCO4 (stereo partly drawn) [Compound 78] :: 8.19E-07
COc1cc2c(cc1OC(=O)Cc1cc(=O)oc3cc(N(C)C)ccc13)CCN[C@]21CS[C@@H]2c3c(OC(C)=O)c(C)c4c(c3[C@H](COC1=O)N1C2[C@H]2c3c(cc(C)c(OC)c3OC(=O)Cc3cc(=O)oc5cc(N(C)C)ccc35)C[C@@H]([C@@H]1O)N2C)OCO4 (stereo partly drawn) [Compound 77] :: 1.64E-08
COC1=C(C)C(=O)C2=C(C1=O)[C@@H]1C3[C@@H]4SC[C@]5(NCCc6cc(O)c(OC)cc65)C(=O)OC[C@@H](c5c6c(c(C)c(OC(C)=O)c54)OCO6)N3[C@@H](O)[C@H](C2)N1C (stereo partly drawn) :: 7.67E-08

Report Toxicity Data Heart for each item below.
1. C=COC(=O)Oc1c(C)c2c(c3c1[C@H]1SC[C@]4(NCCc5cc(OC(=O)OC(C)(C)C)c(OC)cc54)C(=O)OC[C@@H]3N3C1[C@H]1c4c(cc(C)c(OC)c4O)C[C@@H]([C@@H]3O)N1C)OCO2 (stereo partly drawn)
2. COc1cc2c(cc1OC(=O)C(F)(F)F)CCN[C@]21CS[C@@H]2c3c(OC(C)=O)c(C)c4c(c3[C@H](COC1=O)N1C2[C@H]2c3c(cc(C)c(OC)c3O)C[C@@H]([C@@H]1O)N2C)OCO4 (stereo partly drawn)

1.98E-08
3.44E-09

Entry COc1cc2c(cc1O)CCN[C@]21CS[C@@H]2c3c(OC(=O)/C=C/c4ccccc4)c(C)c4c(c3[C@H](COC1=O)N1C2[C@H]2c3c(cc(C)c(OC)c3O)C[C@@H]([C@@H]1O)N2C)OCO4 (stereo partly drawn) has what Toxicity Data Heart?
1.13E-08

* * *

Please go through the items and note down their CC50.
Test system: IGROV-1
Assay: Inhibition of cells growth by colorimetric assay (SRB), IGROV-1
Type: cell-based
Conditions: Homo sapiens, IGROV-1, 48 h, read-out: IGROV LC50, IGROV; SRB, 48 hours exposure
Description: 2°.—Inhibition of Cells Growth by Colorimetric Assay. A colorimetric type of assay, using sulforhodamine B (SRB) reaction has been adapted for a quantitative measurement of cell growth and viability [following the technique described by Philip Skehan, et al. (1990), New colorimetric cytotoxicity assay for anticancer drug screening, J. Natl. Cancer Inst., 82:1107-1112] […] The values for mean+/−SD of data from triplicate wells are calculated. […]
Answers are plain numbers, in nM.

Report CC50 for each item below.
1. C=COC(=O)Oc1cc2c(cc1OC)[C@@]1(CS[C@@H]3c4c(OC(C)=O)c(C)c5c(c4[C@H](COC1=O)N1C3[C@H]3c4c(cc(C)c(OC)c4O)C[C@@H]([C@@H]1O)N3C)OCO5)N(C(=O)OC=C)CC2 (stereo partly drawn)
2. C=COC(=O)N1CCc2cc(O)c(OC)cc2[C@@]12CS[C@@H]1c3c(OC(C)=O)c(C)c4c(c3[C@H](COC2=O)N2C1[C@H]1c3c(cc(C)c(OC)c3O)C[C@@H]([C@@H]2O)N1C)OCO4 (stereo partly drawn)
3. COc1cc2c(cc1O)CCN[C@]21CS[C@@H]2c3c(OC(C)=O)c(C)c4c(c3[C@H](COC1=O)N1C2[C@H]2c3c(cc(C)c(OC)c3OC(C)C)C[C@@H]([C@@H]1O)N2C)OCO4 (stereo partly drawn)
4. COc1cc2c(cc1OC)[C@@]1(CS[C@@H]3c4c(OC(C)=O)c(C)c5c(c4[C@H](COC1=O)N1C3[C@H]3c4c(cc(C)c(OC)c4OC)C[C@@H]([C@@H]1O)N3C)OCO5)NCC2 (stereo partly drawn)
5. COc1cc2c(cc1O)CCN(C)[C@]21CS[C@@H]2c3c(OC(C)=O)c(C)c4c(c3[C@H](COC1=O)N1C2[C@H]2c3c(cc(C)c(OC)c3O)C[C@@H]([C@@H]1O)N2C)OCO4 (stereo partly drawn)
6. COC1=C(C)C(=O)C2=C(C1=O)[C@@H]1C3[C@@H]4SC[C@]5(NCCc6cc(O)c(OC)cc65)C(=O)OC[C@@H](c5c6c(c(C)c(OC(C)=O)c54)OCO6)N3[C@@H](O)[C@H](C2)N1C (stereo partly drawn)

1. 915
2. 1090
3. 134
4. 80.4
5. 129
6. 10.7
